For each entry below, report its pIC50 value.
Biological target: Cytochrome P450 3A4 (Homo sapiens)
Sequence (P08684 whole entry): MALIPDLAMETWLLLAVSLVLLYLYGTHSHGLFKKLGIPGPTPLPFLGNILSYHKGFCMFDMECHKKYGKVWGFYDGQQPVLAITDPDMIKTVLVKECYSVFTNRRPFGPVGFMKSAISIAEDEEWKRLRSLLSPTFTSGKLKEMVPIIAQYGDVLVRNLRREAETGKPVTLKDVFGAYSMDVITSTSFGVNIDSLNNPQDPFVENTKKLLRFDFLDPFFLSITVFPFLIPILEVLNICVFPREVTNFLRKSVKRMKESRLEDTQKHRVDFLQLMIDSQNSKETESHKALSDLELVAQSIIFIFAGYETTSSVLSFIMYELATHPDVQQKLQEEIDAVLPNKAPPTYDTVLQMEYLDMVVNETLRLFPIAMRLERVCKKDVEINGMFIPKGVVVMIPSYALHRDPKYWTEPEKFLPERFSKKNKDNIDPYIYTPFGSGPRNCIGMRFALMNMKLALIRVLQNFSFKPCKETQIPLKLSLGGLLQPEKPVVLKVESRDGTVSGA
Experiment: Inhibition of CYP3A4 (unknown origin) coincubated with substrate
Format: ADME
pIC50: −log10 of the molar value.

## Input Fill in pIC50 for record O=C(Nc1ccc(N2CCN(C(=O)Nc3ccccc3Cl)CC2)nc1)c1oc(N2CCCCC2)nc1C(F)(F)F
## Output < 4.70

## Input Fill in pIC50 for record CC(C)OC(=O)N1CCN(c2ccc(NC(=O)c3oc(N4CCCCC4)nc3C(F)(F)F)cn2)CC1
## Output < 4.70

====

For each entry below, report its hepatocyte CLint value.
Assay: Clearance in human hepatocytes measured per 10^6 cells
Type: ADME, cell-based, Hepatocyte
Conditions: read-out: CLH
# output: bare number, implied unit µL/min/1e6 cells

## Input Fill in hepatocyte CLint for record CC(C)OC(=O)N1CCN(c2ccc(NC(=O)c3oc(N4CCCCC4)nc3C(F)(F)F)cn2)CC1
## Output 24.2

## Input Fill in hepatocyte CLint for record O=C(Nc1ccc(N2CCN(C(=O)Nc3ccccc3Cl)CC2)nc1)c1oc(N2CCCCC2)nc1C(F)(F)F
## Output 16.9
